assay-system: human F508del-CFTR (Homo sapiens, UniProt P13569, DEL508-508)
Sequence (P13569 with tags, fused parts or gaps DEL508-508): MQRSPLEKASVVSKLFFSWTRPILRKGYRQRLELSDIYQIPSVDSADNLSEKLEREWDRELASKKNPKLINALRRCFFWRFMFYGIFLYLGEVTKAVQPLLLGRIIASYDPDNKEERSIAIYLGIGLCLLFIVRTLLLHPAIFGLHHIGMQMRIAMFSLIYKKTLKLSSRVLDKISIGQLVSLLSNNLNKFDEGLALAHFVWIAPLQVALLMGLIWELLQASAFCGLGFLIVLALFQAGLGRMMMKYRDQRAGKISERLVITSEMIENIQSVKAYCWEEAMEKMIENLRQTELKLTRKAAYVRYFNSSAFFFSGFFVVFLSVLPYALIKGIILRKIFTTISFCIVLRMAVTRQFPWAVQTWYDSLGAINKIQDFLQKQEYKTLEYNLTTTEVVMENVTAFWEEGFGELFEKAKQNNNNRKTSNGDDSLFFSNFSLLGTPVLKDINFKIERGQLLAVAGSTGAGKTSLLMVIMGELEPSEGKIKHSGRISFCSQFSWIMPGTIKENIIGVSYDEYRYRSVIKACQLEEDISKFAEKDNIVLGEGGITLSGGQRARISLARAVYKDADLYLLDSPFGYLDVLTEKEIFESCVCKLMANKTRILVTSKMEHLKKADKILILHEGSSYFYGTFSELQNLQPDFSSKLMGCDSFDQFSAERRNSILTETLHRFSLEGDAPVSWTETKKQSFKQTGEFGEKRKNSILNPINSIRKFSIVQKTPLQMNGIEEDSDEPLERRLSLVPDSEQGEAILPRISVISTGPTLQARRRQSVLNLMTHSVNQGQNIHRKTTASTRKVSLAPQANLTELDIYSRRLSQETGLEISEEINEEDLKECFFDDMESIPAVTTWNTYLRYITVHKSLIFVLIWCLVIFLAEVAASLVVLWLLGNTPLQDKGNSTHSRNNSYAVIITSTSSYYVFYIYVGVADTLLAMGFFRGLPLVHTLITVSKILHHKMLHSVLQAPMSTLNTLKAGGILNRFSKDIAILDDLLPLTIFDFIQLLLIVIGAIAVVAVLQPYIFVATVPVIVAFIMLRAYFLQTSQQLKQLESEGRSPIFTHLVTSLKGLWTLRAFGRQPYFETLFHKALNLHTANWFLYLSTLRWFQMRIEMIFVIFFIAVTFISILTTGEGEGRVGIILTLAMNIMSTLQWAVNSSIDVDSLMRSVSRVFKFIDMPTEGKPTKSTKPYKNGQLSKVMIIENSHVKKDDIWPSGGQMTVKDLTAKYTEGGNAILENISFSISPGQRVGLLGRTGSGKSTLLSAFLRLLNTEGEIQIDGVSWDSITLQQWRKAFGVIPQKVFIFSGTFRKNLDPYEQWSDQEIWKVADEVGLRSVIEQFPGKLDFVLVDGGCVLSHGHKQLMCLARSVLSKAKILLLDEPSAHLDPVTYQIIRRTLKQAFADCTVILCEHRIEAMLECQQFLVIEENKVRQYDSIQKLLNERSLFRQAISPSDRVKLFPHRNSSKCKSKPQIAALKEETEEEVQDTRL
protocol-notes: F508del-CFTR cell surface expression (corrector activity), DiscoveRx ß-galactosidase complementation chemiluminescence assay in recombinant U2OS cell line;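 further: U2OS cells co-expressing ProLink-tagged F508del-CFTR and a membrane-anchored enzyme acceptor, where more surface CFTR restores β-galactosidase activity measured by chemiluminescence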
measurement-setup: U2OS, in relation to the Emax of the corrector lumacaftor (=100%); U2OS cell line, 16h compound incubation; arithmetic mean values
result-type: Emax

compound="COc1cccc(CCNC(=O)[C@@H]2CC(=O)N(C)[C@@H](CC(C)C)C(=O)N(C)CC(=O)N[C@H](Cc3ccccc3)COc3cnc4ccccc4c3C(=O)N2)c1 [Example 319]" result=296%
compound="COc1cc(CCNC(=O)[C@@H]2CC(=O)N(C)[C@@H](CC(C)C)C(=O)N(CCC3CCCCC3)CC(=O)N[C@H](Cc3ccccc3)COc3cccc(OC)c3C(=O)N2)ccc1N [Example 218]" result=143%
compound="CC(C)C[C@H]1C(=O)N(CCC2CCCCC2)CC(=O)N[C@H](Cc2ccccc2)COc2ccncc2C(=O)N[C@H](C(=O)NCCc2ccc3c(c2)OCCC3)CC(=O)N1C [Example 261]" result=215%
compound="COc1cccc(CCNC(=O)[C@@H]2CC(=O)N(C)[C@@H](CC(C)C)C(=O)N(C)CC(=O)N[C@H](Cc3ccccc3)COc3cc(OC)ccc3C(=O)N2)c1 [Example 232]" result=105%
compound="COc1nccc2c1C(=O)N[C@H](C(=O)NCCn1cc(C3CC3)cn1)CC(=O)N(C)[C@@H](CC(C)C)C(=O)N1CCCC[C@@H]1C(=O)N[C@H](Cc1ccccc1)CO2 [Example 179]" result=251%
compound="Cc1cc(CCNC(=O)[C@@H]2CC(=O)N(C)[C@@H](CC(C)C)C(=O)N(CCC3CCCCC3)CC(=O)N[C@H](Cc3ccccc3)COc3cnc4ccccc4c3C(=O)N2)on1 [Example 344]" result=284%
compound="Cc1ccc(F)c(CCNC(=O)[C@@H]2CC(=O)N(C)[C@@H](CC(C)C)C(=O)N3CCCC[C@@H]3C(=O)N[C@H](Cc3ccccc3)COc3cnc4ccccc4c3C(=O)N2)c1 [Example 92]" result=256%
compound="CC(C)C[C@H]1C(=O)N2CCOC[C@@H]2C(=O)N[C@H](Cc2ccccc2)COc2ccc3ccccc3c2C(=O)N[C@H](C(=O)NCCc2cccc(OC(F)F)c2)CC(=O)N1C [Example 371]" result=180%
compound="COc1cccc(CCNC(=O)[C@@H]2CC(=O)N(C)[C@@H](CC3CCCC3)C(=O)N(CCC3CCCCC3)CC(=O)N[C@H](Cc3ccccc3)COc3ccc4ccccc4c3C(=O)N2)c1 (racemic) [Example 300]" result=210%
compound="COc1cccc2c1C(=O)N[C@H](C(=O)NCCc1ccccc1)CC(=O)N(C)[C@@H](CC(C)C)C(=O)N(CCC1CCCCC1)CC(=O)N[C@H](Cc1ccccc1)CO2 [Example 211]" result=146%
